test system: 60 different human tumor cell lines; experiment: cells; details: ACHN

compound: C[C@]12CCc3sc(NCCc4ccccc4)nc3C1=CC[C@@H]1[C@@H]2CC[C@]2(C)C(=O)CC[C@@H]12
result units: µM
GI50: 1.96
//
compound: C[C@]12CC[C@H]3[C@@H](CC=C4c5sc(-c6ccc(O)cc6)nc5CC[C@@]43C)[C@@H]1CC[C@@H]2O
result units: µM
GI50: 7.55
//
compound: C[C@]12CCc3sc(Nc4cccc(O)c4)nc3C1=CC[C@@H]1[C@@H]2CC[C@]2(C)C(=O)CC[C@@H]12
result units: µM
GI50: 7.81
//
compound: C[C@]12CCc3sc(Nc4ccc(F)cc4F)nc3C1=CC[C@@H]1[C@@H]2CC[C@]2(C)C(=O)CC[C@@H]12
result units: µM
GI50: 1.81
//
compound: C[C@]12CC[C@H]3[C@@H](CC=C4c5sc(Nc6ccccc6)nc5CC[C@@]43C)[C@@H]1CC[C@@H]2O
result units: µM
GI50: 1.71

* * *

system: 60 different human tumor cell lines; details: A498 (Renal Cancer), five dose
readout: TGI

compound: C[C@]12CCc3sc(Nc4cccc(O)c4)nc3C1=CC[C@@H]1[C@@H]2CC[C@]2(C)C(=O)CC[C@@H]12
readout: TGI
bound operator: >
value observed: 1.00E−4
--
compound: C[C@]12CC[C@H]3[C@@H](CC=C4c5sc(-c6ccc(O)cc6)nc5CC[C@@]43C)[C@@H]1CC[C@@H]2O
readout: TGI
bound operator: =
value observed: 2.13E−5
--
compound: C[C@]12CCc3sc(NCCc4ccccc4)nc3C1=CC[C@@H]1[C@@H]2CC[C@]2(C)C(=O)CC[C@@H]12
readout: TGI
bound operator: >
value observed: 1.00E−4
--
compound: C[C@]12CCc3sc(Nc4ccc(F)cc4F)nc3C1=CC[C@@H]1[C@@H]2CC[C@]2(C)C(=O)CC[C@@H]12
readout: TGI
bound operator: >
value observed: 1.00E−4
--
compound: C[C@]12CC[C@H]3[C@@H](CC=C4c5sc(Nc6ccccc6)nc5CC[C@@]43C)[C@@H]1CC[C@@H]2O
readout: TGI
bound operator: =
value observed: 5.66E−6
--
compound: C[C@]12CCc3nc(Nc4ccc(O)cc4)sc3C1=CC[C@@H]1[C@@H]2CC[C@]2(C)C(=O)CC[C@@H]12
readout: TGI
bound operator: =
value observed: 8.06E−5
--
compound: C[C@]12CCc3nc(N)sc3C1=CC[C@@H]1[C@@H]2CC[C@]2(C)C(=NNC(N)=O)CC[C@@H]12
readout: TGI
bound operator: =
value observed: 6.83E−6

* * *

CC50 listing for selected compounds.
test system: 60 different human tumor cell lines; test: cells; conditions: SF-268, read-out: LC50

compound: C[C@]12CCc3sc(NCCc4ccccc4)nc3C1=CC[C@@H]1[C@@H]2CC[C@]2(C)C(=O)CC[C@@H]12 [IIa.2]
test system: 60 different human tumor cell lines
CC50: > 100 µM
//
compound: C[C@]12CCc3sc(Nc4ccc(OC(F)(F)F)cc4)nc3C1=CC[C@@H]1[C@@H]2CC[C@]2(C)C(=O)CC[C@@H]12 [IIa.19]
test system: 60 different human tumor cell lines
CC50: 57.3 µM
//
compound: C[C@]12CCc3sc(Nc4cccc(O)c4)nc3C1=CC[C@@H]1[C@@H]2CC[C@]2(C)C(=O)CC[C@@H]12 [IIa.17]
test system: 60 different human tumor cell lines
CC50: > 100 µM
//
compound: C[C@]12CCc3sc(Nc4ccc(F)cc4F)nc3C1=CC[C@@H]1[C@@H]2CC[C@]2(C)C(=O)CC[C@@H]12 [IIa.10]
test system: 60 different human tumor cell lines
CC50: > 100 µM
//
compound: C[C@]12CC[C@H]3[C@@H](CC=C4c5sc(-c6ccc(O)cc6)nc5CC[C@@]43C)[C@@H]1CC[C@@H]2O [III.5]
test system: 60 different human tumor cell lines
CC50: > 100 µM
//
compound: C[C@]12CC[C@H]3[C@@H](CC=C4c5sc(Nc6ccccc6)nc5CC[C@@]43C)[C@@H]1CC[C@@H]2O [IIIa.10]
test system: 60 different human tumor cell lines
CC50: 6.62 µM
